# assay.system: M3 (Homo sapiens, UniProt P20309)
# Construct: purchased NIMH Psychoactive Drug Screening Program (PDSP)
# Sequence (P20309 whole entry): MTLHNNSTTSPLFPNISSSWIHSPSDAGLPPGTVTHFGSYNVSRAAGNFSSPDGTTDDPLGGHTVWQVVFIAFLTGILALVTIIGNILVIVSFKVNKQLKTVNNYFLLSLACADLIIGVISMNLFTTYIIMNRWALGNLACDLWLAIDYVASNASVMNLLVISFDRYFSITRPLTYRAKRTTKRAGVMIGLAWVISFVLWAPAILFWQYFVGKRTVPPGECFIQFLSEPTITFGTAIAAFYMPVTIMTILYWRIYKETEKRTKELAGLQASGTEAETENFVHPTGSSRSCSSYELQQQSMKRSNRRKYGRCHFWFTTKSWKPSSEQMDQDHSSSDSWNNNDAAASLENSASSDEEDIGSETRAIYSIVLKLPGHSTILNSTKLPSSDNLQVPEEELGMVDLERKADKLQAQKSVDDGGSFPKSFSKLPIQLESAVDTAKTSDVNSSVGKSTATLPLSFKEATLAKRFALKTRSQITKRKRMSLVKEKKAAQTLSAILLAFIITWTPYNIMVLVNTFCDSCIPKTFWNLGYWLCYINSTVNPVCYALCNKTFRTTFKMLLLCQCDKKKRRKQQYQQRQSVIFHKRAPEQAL
# protocol.details: PDSP primary binding M3
# measurement.setup: primary binding, 10,000 nM; last figure of the line = mean of the 4 before it; read-out: M3, PDSP raw data, mean
// reported inhibition at 10 µM for each item listed
// units = %; emit number, no label

Worked cases, inhibition at 10 µM given:
C[C@H]1N=C(c2ccccc2F)c2cc(Cl)ccc2-n2cnc(-c3nc(C4CC4)no3)c21 [Compound 38]    19.3
C[C@H]1N=C(c2ccccc2F)c2cc(-c3ccccc3)ccc2-n2cnc(C(=O)N(C)C)c21 [Compound 5]    3.03
CCc1noc(-c2ncn3c2[C@@H](C)N=C(c2ccccc2F)c2cc(Cl)ccc2-3)n1 [Compound 36]    -3.98

--- query ---
# input I would be grateful if you could share the reported inhibition at 10 µM for C#Cc1ccc2c(c1)C(c1ccccc1Cl)=N[C@H](C)c1c(C(=O)NC)ncn1-2 [Compound 21] .
# output -12.9

====

// reported inhibition at 10 µM for each item listed
# assay.system: 5-HT4 (Homo sapiens)
# Construct: purchased NIMH Psychoactive Drug Screening Program (PDSP)
# Sequence (Q13639 whole entry): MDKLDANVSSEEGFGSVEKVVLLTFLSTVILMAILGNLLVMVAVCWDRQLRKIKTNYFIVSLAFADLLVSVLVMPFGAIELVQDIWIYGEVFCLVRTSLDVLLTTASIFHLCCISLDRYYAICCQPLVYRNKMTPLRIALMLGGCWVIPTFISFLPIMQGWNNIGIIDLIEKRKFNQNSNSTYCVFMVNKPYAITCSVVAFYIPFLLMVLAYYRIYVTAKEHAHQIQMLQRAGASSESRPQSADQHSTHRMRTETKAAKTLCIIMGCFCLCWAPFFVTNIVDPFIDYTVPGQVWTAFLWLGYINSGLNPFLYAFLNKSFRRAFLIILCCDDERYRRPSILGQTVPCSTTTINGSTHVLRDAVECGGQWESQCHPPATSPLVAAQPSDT
# protocol.details: PDSP primary binding 5-HT4
# measurement.setup: 1.5 h; primary binding, 10,000 nM; last figure of the line = mean of the 4 before it; read-out: 5-HT4, PDSP raw data, mean
I'd appreciate it if you included the unit after the number.

Worked cases, inhibition at 10 µM given:
C#Cc1ccc2c(c1)C(c1ccccn1)=N[C@@H](C)c1c(C(=O)N(C)C)ncn1-2    -0.81%
CCc1noc(-c2ncn3c2[C@@H](C)N=C(c2ccccc2F)c2cc(-c4ccccc4)ccc2-3)n1    -0.48%
CCc1noc(-c2ncn3c2CN=C(c2ccccc2F)c2cc(C4CC4)ccc2-3)n1    -9.26%
C[C@H]1N=C(c2ccccc2F)c2cc(Cl)ccc2-n2cnc(-c3nc(C4CC4)no3)c21    38.7%
C#Cc1ccc2c(c1)C(c1ccccn1)=N[C@@H](C)c1c(C(=O)NC)ncn1-2    -1.06%

# input I would be grateful if you could share the reported inhibition at 10 µM for "C#Cc1ccc2c(c1)C(c1ccccc1F)=N[C@H](C)c1c(C(=S)N(C)C)ncn1-2" .
# output -14.4%

# input I would be grateful if you could share the reported inhibition at 10 µM for "CC(C)c1noc(-c2ncn3c2[C@@H](C)N=C(c2ccccc2F)c2cc(Cl)ccc2-3)n1" .
# output 48%

# input I would be grateful if you could share the reported inhibition at 10 µM for "C#Cc1ccc2c(c1)C(c1ccccc1Cl)=N[C@H](C)c1c(C(=O)N(C)CC)ncn1-2" .
# output -6.11%

# input I would be grateful if you could share the reported inhibition at 10 µM for "CCc1noc(-c2ncn3c2[C@@H](C)N=C(c2ccccc2F)c2cc(C4CC4)ccc2-3)n1" .
# output 3.05%

# input I would be grateful if you could share the reported inhibition at 10 µM for "CCc1noc(-c2ncn3c2[C@@H](C)N=C(c2ccccc2F)c2cc(Cl)ccc2-3)n1" .
# output -12.3%

# input I would be grateful if you could share the reported inhibition at 10 µM for "C#Cc1ccc2c(c1)C(c1ccccc1Cl)=N[C@H](C)c1c(C(=O)NC)ncn1-2" .
# output 4%

# input I would be grateful if you could share the reported inhibition at 10 µM for "C[C@H]1N=C(c2ccccc2F)c2cc(-c3ccccc3)ccc2-n2cnc(C(=O)N(C)C)c21" .
# output -14.4%

====

// reported inhibition at 10 µM for each item listed
# assay.system: H3 (Homo sapiens, UniProt Q9Y5N1)
# Construct: purchased NIMH Psychoactive Drug Screening Program (PDSP)
# Sequence (Q9Y5N1 whole entry): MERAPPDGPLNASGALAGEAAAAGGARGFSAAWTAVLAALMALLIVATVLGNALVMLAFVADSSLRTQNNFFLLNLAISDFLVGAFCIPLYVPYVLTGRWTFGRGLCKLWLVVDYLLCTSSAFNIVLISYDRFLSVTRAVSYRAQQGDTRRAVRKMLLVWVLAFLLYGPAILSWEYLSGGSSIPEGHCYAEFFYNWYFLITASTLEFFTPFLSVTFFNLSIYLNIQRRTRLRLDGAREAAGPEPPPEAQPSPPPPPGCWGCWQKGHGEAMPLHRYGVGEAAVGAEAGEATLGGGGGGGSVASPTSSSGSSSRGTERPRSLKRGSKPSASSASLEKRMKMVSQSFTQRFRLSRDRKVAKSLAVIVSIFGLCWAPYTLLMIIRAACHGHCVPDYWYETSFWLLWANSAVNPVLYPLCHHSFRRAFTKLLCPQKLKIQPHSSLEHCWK
# protocol.details: PDSP primary binding H3
# measurement.setup: primary binding, 10,000 nM; last figure of the line = mean of the 4 before it; read-out: H3, PDSP raw data, mean
// units = %; emit number, no label

Worked cases, inhibition at 10 µM given:
CCc1noc(-c2ncn3c2CN=C(c2ccccc2F)c2cc(C4CC4)ccc2-3)n1    7.26
C#Cc1ccc2c(c1)C(c1ccccc1Cl)=N[C@H](C)c1c(C(=O)NC)ncn1-2    4.81
C#Cc1ccc2c(c1)C(c1ccccc1Cl)=N[C@H](C)c1c(C(=O)N(C)CC)ncn1-2    -29.5
C[C@H]1N=C(c2ccccc2F)c2cc(Cl)ccc2-n2cnc(-c3nc(C4CC4)no3)c21    3.21
C#Cc1ccc2c(c1)C(c1ccccc1F)=N[C@H](C)c1c(C(=S)N(C)C)ncn1-2    5.94

# input I would be grateful if you could share the reported inhibition at 10 µM for "C#Cc1ccc2c(c1)C(c1ccccn1)=N[C@@H](C)c1c(C(=O)N(C)C)ncn1-2" .
# output -5.55

# input I would be grateful if you could share the reported inhibition at 10 µM for "CC(C)c1noc(-c2ncn3c2[C@@H](C)N=C(c2ccccc2F)c2cc(Cl)ccc2-3)n1" .
# output 6.42

# input I would be grateful if you could share the reported inhibition at 10 µM for "C#Cc1ccc2c(c1)C(c1ccccn1)=N[C@@H](C)c1c(C(=O)NC)ncn1-2" .
# output -12.8

====

# assay.system: M3D (Homo sapiens, UniProt P20309, A239G/Y149C)
# Construct: purchased NIMH Psychoactive Drug Screening Program (PDSP)
# Sequence (P20309 whole entry Y149C/A239G): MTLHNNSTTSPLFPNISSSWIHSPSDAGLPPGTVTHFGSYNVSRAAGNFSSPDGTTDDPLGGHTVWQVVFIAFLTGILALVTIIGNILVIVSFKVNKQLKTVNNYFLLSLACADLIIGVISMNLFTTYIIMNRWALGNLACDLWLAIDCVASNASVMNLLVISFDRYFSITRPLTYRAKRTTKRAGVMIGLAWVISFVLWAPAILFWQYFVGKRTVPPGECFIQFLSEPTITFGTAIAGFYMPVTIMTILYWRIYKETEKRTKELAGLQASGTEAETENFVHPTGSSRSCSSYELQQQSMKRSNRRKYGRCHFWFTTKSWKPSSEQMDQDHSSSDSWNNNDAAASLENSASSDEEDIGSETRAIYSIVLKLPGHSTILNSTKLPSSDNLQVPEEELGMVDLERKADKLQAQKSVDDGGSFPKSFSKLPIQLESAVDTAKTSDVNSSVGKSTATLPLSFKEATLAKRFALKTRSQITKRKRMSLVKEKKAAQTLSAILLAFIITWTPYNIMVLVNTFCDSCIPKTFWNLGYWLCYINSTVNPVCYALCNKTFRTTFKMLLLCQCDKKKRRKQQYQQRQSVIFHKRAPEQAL
# protocol.details: PDSP primary binding M3D
# measurement.setup: primary binding, 10,000 nM; last figure of the line = mean of the 4 before it; read-out: M3D, PDSP raw data, mean
reported.endpoint: inhibition at 10 µM

C#Cc1ccc2c(c1)C(c1ccccn1)=N[C@@H](C)c1c(C(=O)N(C)C)ncn1-2    6.59%
C#Cc1ccc2c(c1)C(c1ccccn1)=N[C@@H](C)c1c(C(=O)NC)ncn1-2    9.08%
C[C@H]1N=C(c2ccccc2F)c2cc(-c3ccccc3)ccc2-n2cnc(C(=O)N(C)C)c21    4.84%
C#Cc1ccc2c(c1)C(c1ccccc1Cl)=N[C@H](C)c1c(C(=O)NC)ncn1-2    0.48%
C[C@H]1N=C(c2ccccc2F)c2cc(Cl)ccc2-n2cnc(-c3nc(C4CC4)no3)c21    6.92%
CCc1noc(-c2ncn3c2[C@@H](C)N=C(c2ccccc2F)c2cc(-c4ccccc4)ccc2-3)n1    4.49%
CC(C)c1noc(-c2ncn3c2[C@@H](C)N=C(c2ccccc2F)c2cc(Cl)ccc2-3)n1    -23.4%

--- query ---
# input I would be grateful if you could share the reported inhibition at 10 µM for "CCc1noc(-c2ncn3c2CN=C(c2ccccc2F)c2cc(C4CC4)ccc2-3)n1" .
# output 11.8%

====

# assay.system: D1 (Homo sapiens, UniProt P21728)
# Construct: purchased NIMH Psychoactive Drug Screening Program (PDSP)
# Sequence (P21728 whole entry): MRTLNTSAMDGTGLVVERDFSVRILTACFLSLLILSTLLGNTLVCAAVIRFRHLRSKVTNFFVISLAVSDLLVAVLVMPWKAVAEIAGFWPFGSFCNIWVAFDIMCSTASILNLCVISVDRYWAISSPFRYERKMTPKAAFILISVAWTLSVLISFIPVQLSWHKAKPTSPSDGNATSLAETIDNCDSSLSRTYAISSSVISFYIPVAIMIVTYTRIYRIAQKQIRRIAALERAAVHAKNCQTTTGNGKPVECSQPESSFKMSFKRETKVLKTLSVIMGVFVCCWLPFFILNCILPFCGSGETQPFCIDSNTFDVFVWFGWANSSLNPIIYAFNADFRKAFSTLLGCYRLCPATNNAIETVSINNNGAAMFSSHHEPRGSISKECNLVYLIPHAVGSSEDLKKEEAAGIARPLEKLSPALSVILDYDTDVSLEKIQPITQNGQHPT
# protocol.details: PDSP primary binding D1
# measurement.setup: 1.5 h; primary binding, 10,000 nM; last figure of the line = mean of the 4 before it; read-out: D1, PDSP raw data, mean
// reported inhibition at 10 µM for each item listed
// units = %; emit number, no label

CCc1noc(-c2ncn3c2[C@@H](C)N=C(c2ccccc2F)c2cc(C4CC4)ccc2-3)n1    74.6
C#Cc1ccc2c(c1)C(c1ccccn1)=N[C@@H](C)c1c(C(=O)N(C)C)ncn1-2    -41.5

# input I would be grateful if you could share the reported inhibition at 10 µM for "CCc1noc(-c2ncn3c2[C@@H](C)N=C(c2ccccc2F)c2cc(Cl)ccc2-3)n1" .
# output 42.8

# input I would be grateful if you could share the reported inhibition at 10 µM for "CC(C)c1noc(-c2ncn3c2[C@@H](C)N=C(c2ccccc2F)c2cc(Cl)ccc2-3)n1" .
# output 27.4

====

# assay.system: V1B (Homo sapiens, UniProt P47901)
# Construct: purchased NIMH Psychoactive Drug Screening Program (PDSP)
# Sequence (P47901 whole entry): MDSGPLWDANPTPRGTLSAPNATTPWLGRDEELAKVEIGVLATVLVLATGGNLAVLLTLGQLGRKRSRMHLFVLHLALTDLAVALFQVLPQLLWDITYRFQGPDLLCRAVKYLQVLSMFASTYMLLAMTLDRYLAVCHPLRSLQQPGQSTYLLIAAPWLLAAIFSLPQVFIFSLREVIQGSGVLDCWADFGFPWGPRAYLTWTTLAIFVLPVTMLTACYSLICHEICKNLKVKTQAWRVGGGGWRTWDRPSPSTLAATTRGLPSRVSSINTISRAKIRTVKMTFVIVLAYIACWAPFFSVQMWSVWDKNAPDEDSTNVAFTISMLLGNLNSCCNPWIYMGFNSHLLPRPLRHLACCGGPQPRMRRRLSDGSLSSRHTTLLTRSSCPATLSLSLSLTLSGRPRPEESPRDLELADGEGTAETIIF
# protocol.details: PDSP primary binding V1B
# measurement.setup: primary binding, 10,000 nM; last figure of the line = mean of the 4 before it; read-out: V1B, PDSP raw data, mean
reported.endpoint: inhibition at 10 µM (%)
// units = %; emit number, no label

Worked cases, inhibition at 10 µM given:
CCc1noc(-c2ncn3c2[C@@H](C)N=C(c2ccccc2F)c2cc(Cl)ccc2-3)n1    22.9
CCc1noc(-c2ncn3c2CN=C(c2ccccc2F)c2cc(C4CC4)ccc2-3)n1    35.7
C#Cc1ccc2c(c1)C(c1ccccc1Cl)=N[C@H](C)c1c(C(=O)N(C)CC)ncn1-2    11
CC(C)c1noc(-c2ncn3c2[C@@H](C)N=C(c2ccccc2F)c2cc(Cl)ccc2-3)n1    -15.4
CCc1noc(-c2ncn3c2[C@@H](C)N=C(c2ccccc2F)c2cc(C4CC4)ccc2-3)n1    2.67

# input I would be grateful if you could share the reported inhibition at 10 µM for "C#Cc1ccc2c(c1)C(c1ccccn1)=N[C@@H](C)c1c(C(=O)NC)ncn1-2" .
# output -4.18

# input I would be grateful if you could share the reported inhibition at 10 µM for "CCc1noc(-c2ncn3c2[C@@H](C)N=C(c2ccccc2F)c2cc(-c4ccccc4)ccc2-3)n1" .
# output 21

# input I would be grateful if you could share the reported inhibition at 10 µM for "C[C@H]1N=C(c2ccccc2F)c2cc(Cl)ccc2-n2cnc(-c3nc(C4CC4)no3)c21" .
# output -7.2
